Molecular target: 72 kDa type IV collagenase (Homo sapiens)
Sequence (P08253 whole entry): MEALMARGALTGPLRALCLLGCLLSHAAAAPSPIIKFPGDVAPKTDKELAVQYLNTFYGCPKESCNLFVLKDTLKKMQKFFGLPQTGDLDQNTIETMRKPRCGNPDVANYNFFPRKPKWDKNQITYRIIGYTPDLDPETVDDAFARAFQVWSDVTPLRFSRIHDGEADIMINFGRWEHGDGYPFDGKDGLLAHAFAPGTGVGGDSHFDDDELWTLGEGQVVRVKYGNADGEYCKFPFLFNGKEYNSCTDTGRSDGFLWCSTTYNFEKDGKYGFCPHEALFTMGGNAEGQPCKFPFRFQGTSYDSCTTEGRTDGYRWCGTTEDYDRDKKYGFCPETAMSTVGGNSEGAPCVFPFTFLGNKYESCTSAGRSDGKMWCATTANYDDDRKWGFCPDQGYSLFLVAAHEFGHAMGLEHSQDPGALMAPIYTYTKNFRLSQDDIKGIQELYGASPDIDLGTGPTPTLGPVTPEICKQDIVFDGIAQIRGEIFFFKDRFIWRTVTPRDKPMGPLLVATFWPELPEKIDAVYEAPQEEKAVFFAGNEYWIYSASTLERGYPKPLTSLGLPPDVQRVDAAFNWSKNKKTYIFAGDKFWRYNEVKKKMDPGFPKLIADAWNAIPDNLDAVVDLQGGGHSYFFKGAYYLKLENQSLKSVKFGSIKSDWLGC
Value Kind: IC50 (µM)

a: Cc1cc(=O)c(O)c(CNCc2ccc(-c3ccccc3)cc2)o1
b: COc1ccc(CNC(=O)c2oc(C)cc(=S)c2O)cc1
Rank a against b by their IC50 values and give the higher one. Mark your selection by writing its label.
a

---

Target: Stromelysin-1 (Homo sapiens, UniProt P08254)
Assay: Inhibition of human MMP3 catalytic domain at 50 uM after 1 hr by fluorescent substrate assay
Value Kind: inhibition (%)

Worked examples, 3 molecules total:
Smiles Repr | inhibition (%)
COc1ccc(CNC(=O)c2oc(C)cc(=S)c2O)cc1 | 97
Cc1occ(O)c(=O)c1C(=O)NCc1ccc(O)cc1 | 32
O=C(NCc1ccc(-c2ccccc2)cc1)c1cc(=O)c(O)co1 | 44

P: Cc1cc(=O)c(O)c(CNCc2ccc(-c3ccccc3)cc2)o1
Q: Cc1occ(O)c(=O)c1C(=O)NCc1ccc(-c2ccccc2)cc1
R: COc1ccc(CNC(=O)c2cc(=S)c(O)co2)cc1
S: Cc1occ(O)c(=S)c1C(=O)NCc1ccc(-c2ccccc2)cc1
hey, can you rank those molecules up there by inhibition? biggest number first please Form field (ranking): labels in requested order.
R, S, Q, P

I: COc1ccc(CNC(=O)c2c(C)oc(CO)c(O)c2=O)cc1
II: COc1ccc(CNC(=O)c2cc(=O)c(O)co2)cc1
Rank I against II by their inhibition values and give the higher one. Mark your selection by writing its label.
I
(I: 32%, II: 22%)

1: Cc1cc(=O)c(O)c(COCc2ccc(-c3ccccc3)cc2)o1
2: Cc1cc(=O)c(O)c(C(=O)NCc2ccc(O)cc2)o1
Rank 1 against 2 by their inhibition values and give the higher one. Mark your selection by writing its label.
2

a: COc1ccc(CNC(=O)c2c(C)occ(O)c2=S)cc1
b: COc1ccc(CNC(=O)c2oc(C)cc(=O)c2O)cc1
// returns a or b , whichever has the lower inhibition Mark your selection by writing its label.
a
(a: 36%, b: 93%)
